Test system: CHO
Assay: Cytotoxicity against CHO cells assessed as reduction in cell viability by MTT assay
Format: cell-based, Cricetulus griseus
Conditions: chinese hamster
EXPERIMENTAL READOUT: CC50 (µM)
One number for each entry, in µM.

# count of solved cases: 4
>>> result_value("CN1CCN([C@H]2CC[C@H](Nc3nccc4[nH]c(-c5cc(F)cc(F)c5)nc34)CC2)CC1")
11
>>> result_value("CN1CCN(CC2CCN(c3cncc4[nH]c(-c5cc(F)cc(F)c5)nc34)CC2)CC1")
46
>>> result_value("CN1CCC(N2CCN(c3nccc4[nH]c(-c5ccc(F)c(F)c5)nc34)CC2)CC1")
33
>>> result_value("CN1CCN(CC2CCN(c3nccc4[nH]c(-c5cc(F)cc(F)c5)nc34)CC2)CC1")
23

Returns the measured CC50 for the input molecule. Input: CN1CCN(CC2CCN(c3nccc4[nH]c(-c5cc(F)cc(C(F)(F)F)c5)nc34)CC2)CC1
3.1

----------
Assay: Tmax in Plasmodium falciparum 3D70087/N9 infected NSG mouse po by LC-MS/MS analysis
Settings: in vivo
EXPERIMENTAL READOUT: Tmax
Lab note: write values as number then unit, every time.

Returns the measured Tmax for the input molecule. Input: CN1CCN(CC2CCN(c3nccc4[nH]c(-c5cc(F)cc(F)c5)nc34)CC2)CC1
4 h

----------
Test: Cmax in Plasmodium falciparum 3D70087/N9 infected NSG mouse at 100 mg/kg, po by LC-MS/MS analysis
Format: ADME, organism-based
Parameters: route oral, dose 100 mg/kg
Settings: in vivo
EXPERIMENTAL READOUT: Cmax (µM)
Numbers only, in µM.

Returns the measured Cmax for the input compound. Input: CN1CCN(CC2CCN(c3nccc4[nH]c(-c5cc(F)cc(F)c5)nc34)CC2)CC1
6.68

----------
Assignment: determine reported pIC50 for the given compounds.
Molecular target: Voltage-gated inwardly rectifying potassium channel KCNH2 (Homo sapiens)
Sequence (Q12809 whole entry): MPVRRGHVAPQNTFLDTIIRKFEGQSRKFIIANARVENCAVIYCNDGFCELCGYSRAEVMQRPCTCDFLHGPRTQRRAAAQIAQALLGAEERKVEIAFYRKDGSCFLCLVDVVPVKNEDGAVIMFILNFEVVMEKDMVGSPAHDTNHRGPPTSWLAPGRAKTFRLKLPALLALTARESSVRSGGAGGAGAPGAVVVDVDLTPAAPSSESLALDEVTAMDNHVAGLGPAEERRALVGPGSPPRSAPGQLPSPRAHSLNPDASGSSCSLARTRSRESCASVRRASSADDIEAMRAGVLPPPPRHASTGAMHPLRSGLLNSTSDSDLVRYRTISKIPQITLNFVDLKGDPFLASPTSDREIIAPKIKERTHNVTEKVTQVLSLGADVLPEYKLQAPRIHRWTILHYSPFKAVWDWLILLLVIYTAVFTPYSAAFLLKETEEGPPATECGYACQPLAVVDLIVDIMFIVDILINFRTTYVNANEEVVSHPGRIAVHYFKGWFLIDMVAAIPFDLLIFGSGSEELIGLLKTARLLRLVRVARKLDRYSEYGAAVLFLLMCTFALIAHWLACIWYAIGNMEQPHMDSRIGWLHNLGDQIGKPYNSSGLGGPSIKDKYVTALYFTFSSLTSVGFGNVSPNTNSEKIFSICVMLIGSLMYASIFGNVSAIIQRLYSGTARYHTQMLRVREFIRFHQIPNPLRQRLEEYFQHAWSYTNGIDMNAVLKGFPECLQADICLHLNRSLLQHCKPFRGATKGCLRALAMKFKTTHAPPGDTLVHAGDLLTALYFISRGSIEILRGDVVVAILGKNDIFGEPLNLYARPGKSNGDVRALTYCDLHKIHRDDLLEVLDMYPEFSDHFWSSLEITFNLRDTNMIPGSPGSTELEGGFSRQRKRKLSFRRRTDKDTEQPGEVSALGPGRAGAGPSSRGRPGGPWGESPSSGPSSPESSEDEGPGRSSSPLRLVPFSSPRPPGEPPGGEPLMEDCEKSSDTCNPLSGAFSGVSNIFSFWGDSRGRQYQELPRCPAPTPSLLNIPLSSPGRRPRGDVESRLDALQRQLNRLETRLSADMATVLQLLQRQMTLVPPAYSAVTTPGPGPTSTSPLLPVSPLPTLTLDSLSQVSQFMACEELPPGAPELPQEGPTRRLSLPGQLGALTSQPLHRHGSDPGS
Experiment: Inhibition of human ERG by patch clamp method
One number for each entry, as −log10 of the molar value.

>>> result_value("CN1CCCN(c2nccc3[nH]c(-c4ccc(F)c(F)c4)nc23)CC1")
6.40
>>> result_value("CN1CCCN(c2nccc3[nH]c(-c4cc(F)cc(F)c4)nc23)CC1")
6.40

Pending compound:
Returns the measured pIC50 for the input compound. Input: CN1CCN(C(=O)C2CCN(c3nccc4[nH]c(-c5ccc(F)c(F)c5)nc34)CC2)CC1
4.92

----------
Test system: Plasmodium falciparum
Experiment: Antimalarial activity against asexual ring stage of Plasmodium falciparum NF54 measured after 24 hrs by [3H]hypoxanthine incorporation assay
Format: functional, organism-based
EXPERIMENTAL READOUT: pIC50
Numbers only, as −log10 of the molar value.

Give pIC50 (Plasmodium falciparum) of the following compound: CN1CCN(CC2CCN(c3nccc4[nH]c(-c5cc(F)cc(F)c5)nc34)CC2)CC1
7.57

----------
Assay: AUC (0 to t) in Balb/C mouse at 2 mg/kg, iv by LC-MS/MS analysis
Type: ADME, organism-based
Parameters: dose 2 mg/kg
Settings: in vivo
Strictly below 2 µM·h in AUCt: 1. Otherwise: -1.

// known answers, use as guide
>>> category_label("CN1CCN(CC2CCN(c3nccc4[nH]c(-c5cc(F)cc(F)c5)nc34)CC2)CC1")
-1
>>> category_label("CN1CCN(CC2CCN(c3cncc4[nH]c(-c5cc(F)cc(F)c5)nc34)CC2)CC1")
1
>>> category_label("CN1CCC(N2CCN(c3nccc4[nH]c(-c5ccc(F)c(F)c5)nc34)CC2)CC1")
-1
>>> category_label("Fc1ccc(-c2nc3c(N4CCC(CN5CCOCC5)CC4)nccc3[nH]2)cc1F")
-1
>>> category_label("Cn1ccnc1N1CCN(CC2CCN(c3nccc4[nH]c(-c5cc(F)cc(F)c5)nc34)CC2)CC1")
-1

Please find the next molecule below.
Please let me know if CN1CCN(c2nccc3nc(-c4ccc(F)c(F)c4)[nH]c23)CC1 shows AUCt below 2 µM·h.
-1
